# RECORDED CONDITIONS: human gut metagenome, 24 h, 2 µM; note: call rule not given here
MEASURE NAME: Bacterial Biotransformation

MOLECULE	REPORTED MEASUREMENT
CCN(CC)C(=O)C1(c2ccccc2)CC1CN (configuration not stated)	Compound NOT metabolized
C[C@]12C=CC(=O)C=C1CC[C@@H]1[C@@H]2C(=O)C[C@@]2(C)[C@H]1CC[C@]2(O)C(=O)CO	Compound NOT metabolized
CN[C@H]1CC[C@@H](c2ccc(Cl)c(Cl)c2)c2ccccc21	Compound metabolized
COc1cc2nc(N3CCN(C(=O)C4CCCO4)CC3)nc(N)c2cc1OC (configuration not stated)	Compound NOT metabolized
CC(C)c1nc(N(C)S(C)(=O)=O)nc(-c2ccc(F)cc2)c1/C=C/[C@@H](O)C[C@@H](O)CC(=O)[O-].CC(C)c1nc(N(C)S(C)(=O)=O)nc(-c2ccc(F)cc2)c1/C=C/[C@@H](O)C[C@@H](O)CC(=O)[O-].[Ca+2]	Compound metabolized
CC(=O)OCC(=O)[C@@]1(OC(C)=O)[C@@H](C)C[C@H]2[C@@H]3C[C@H](F)C4=CC(=O)C=C[C@]4(C)[C@@]3(F)[C@@H](O)C[C@@]21C [DIFLORASONE DIACETATE]	Compound metabolized
CCN(C)C(=O)Oc1cccc([C@H](C)N(C)C)c1.O=C(O)C(O)C(O)C(=O)O [RIVASTIGMINE TARTRATE]	Compound NOT metabolized

---

# TEST PROTOCOL: The drug is tested on WLS-090 corresponding to human gut metagenome with ENA study accession number: PRJEB37062 and ENA sample accession number: ERS12561753 for biotransformation under anaerobic condition. The drug concentrations were measured over 9 timepoints collected between 0 and 24 hours of incubation by liquid-chromatography-coupled mass spectrometry (LC–MS)
# RECORDED CONDITIONS: 2 µM
MEASURE NAME: Bacterial Biotransformation

COMPOUND	MEASURE NAME	REPORTED MEASUREMENT
CC(N)C12CC3CC(CC(C3)C1)C2 (stereo not given) [RIMANTADINE]	Bacterial Biotransformation	Compound NOT metabolized
CN(C)CCOC(C)(c1ccccc1)c1ccccn1.O=C(O)CCC(=O)O (stereo not given) [DOXYLAMINE SUCCINATE]	Bacterial Biotransformation	Compound NOT metabolized
CCN(C(C)=O)c1cccc(-c2ccnc3c(C#N)cnn23)c1 [ZALEPLON]	Bacterial Biotransformation	Compound metabolized
CC(CCc1ccccc1)NCC(O)c1ccc(O)c(C(N)=O)c1 (stereo not given) [LABETALOL]	Bacterial Biotransformation	Compound metabolized
CN1CCC[C@@H]1CCO[C@](C)(c1ccccc1)c1ccc(Cl)cc1.O=C(O)/C=C/C(=O)O [CLEMASTINE FUMARATE]	Bacterial Biotransformation	Compound NOT metabolized
O=C(NC(Cc1cc(=O)[nH]c2ccccc12)C(=O)O)c1ccc(Cl)cc1 (stereo not given) [REBAMIPIDE]	Bacterial Biotransformation	Compound NOT metabolized
Br.COc1ccc2c(c1)[C@]13CCCC[C@@H]1[C@H](C2)N(C)CC3.O [DEXTROMETHORPHAN HYDROBROMIDE]	Bacterial Biotransformation	Compound metabolized
CCN(CC)CCOC(=O)C1(C2CCCCC2)CCCCC1 [DICYCLOMINE]	Bacterial Biotransformation	Compound metabolized
CN1[C@@H]2CC[C@H]1C[C@@H](OC(=O)c1c[nH]c3ccccc13)C2 [TROPISETRON]	Bacterial Biotransformation	Compound metabolized
CCN(CC)CCNC(=O)c1cc(S(C)(=O)=O)ccc1OC [TIAPRIDE]	Bacterial Biotransformation	Compound metabolized
CCOC(=O)[C@H](CCc1ccccc1)N[C@@H](C)C(=O)N1Cc2ccccc2C[C@H]1C(=O)O	Bacterial Biotransformation	Compound metabolized
CN(C)CCC=C1c2ccccc2COc2ccccc21 [DOXEPIN]	Bacterial Biotransformation	Compound metabolized
CC(=O)OCC(CCn1cnc2cnc(N)nc21)COC(C)=O [FAMCICLOVIR]	Bacterial Biotransformation	Compound metabolized
COc1cc2nc(N3CCN(C(=O)C4CCCO4)CC3)nc(N)c2cc1OC (stereo not given) [TERAZOSIN]	Bacterial Biotransformation	Compound metabolized
COc1ccc(Cc2nccc3cc(OC)c(OC)cc23)cc1OC [PAPAVERINE]	Bacterial Biotransformation	Compound metabolized
COC(=O)C(c1ccccc1)C1CCCCN1 (stereo not given) [METHYLPHENIDATE]	Bacterial Biotransformation	Compound metabolized
CN1CCC(OC(c2ccccc2)c2ccccc2)CC1	Bacterial Biotransformation	Compound metabolized
CN(C/C=C/C#CC(C)(C)C)Cc1cccc2ccccc12 [TERBINAFINE]	Bacterial Biotransformation	Compound NOT metabolized
CC(NC(C)(C)C)C(=O)c1cccc(Cl)c1 (stereo not given) [BUPROPION]	Bacterial Biotransformation	Compound NOT metabolized
CNCC[C@H](Oc1cccc2ccccc12)c1cccs1 [DULOXETINE]	Bacterial Biotransformation	Compound metabolized
CCCCCNC(=N)N/N=C/c1c[nH]c2ccc(OC)cc12.O=C(O)/C=C\C(=O)O [TEGASEROD MALEATE]	Bacterial Biotransformation	Compound metabolized
CN1CCC(=C2c3ccccc3CC(=O)c3sccc32)CC1.O=C(O)/C=C/C(=O)O [KETOTIFEN FUMARATE]	Bacterial Biotransformation	Compound metabolized
CC(C)C[C@H]1C(=O)N2CCC[C@H]2[C@]2(O)O[C@](NC(=O)[C@@H]3C=C4c5cccc6[nH]c(Br)c(c56)C[C@H]4N(C)C3)(C(C)C)C(=O)N12.CS(=O)(=O)O [BROMOCRIPTINE MESYLATE]	Bacterial Biotransformation	Compound metabolized
CC(=O)O[C@]1(C(C)=O)CC[C@H]2[C@@H]3C=C(C)C4=CC(=O)CC[C@]4(C)[C@H]3CC[C@@]21C [MEGESTROL ACETATE]	Bacterial Biotransformation	Compound metabolized
CCOc1ccccc1OCCN[C@H](C)Cc1ccc(OC)c(S(N)(=O)=O)c1.Cl [TAMSULOSIN HYDROCHLORIDE]	Bacterial Biotransformation	Compound metabolized
CCN1CCCC1CNC(=O)c1cc(S(=O)(=O)CC)c(N)cc1OC (stereo not given) [AMISULPRIDE]	Bacterial Biotransformation	Compound metabolized
CCN(C)C(=O)Oc1cccc([C@H](C)N(C)C)c1.O=C(O)C(O)C(O)C(=O)O [RIVASTIGMINE TARTRATE]	Bacterial Biotransformation	Compound NOT metabolized
CCOc1ccc2nc(S(N)(=O)=O)sc2c1 [ETHOXZOLAMIDE]	Bacterial Biotransformation	Compound metabolized
C[C@@H](c1ncncc1F)[C@](O)(Cn1cncn1)c1ccc(F)cc1F [VORICONAZOLE]	Bacterial Biotransformation	Compound metabolized
CC(=O)CCCCn1c(=O)c2c(ncn2C)n(C)c1=O [PENTOXIFYLLINE]	Bacterial Biotransformation	Compound metabolized
CN(CCOc1ccc(CC2SC(=O)NC2=O)cc1)c1ccccn1.O=C(O)/C=C\C(=O)O (stereo not given) [ROSIGLITAZONE MALEATE]	Bacterial Biotransformation	Compound metabolized
CC1=C(CC(=O)O)c2cc(F)ccc2/C1=C\c1ccc([S+](C)[O-])cc1 (stereo not given)	Bacterial Biotransformation	Compound metabolized
CCOc1cc(CC(=O)N[C@@H](CC(C)C)c2ccccc2N2CCCCC2)ccc1C(=O)O [REPAGLINIDE]	Bacterial Biotransformation	Compound metabolized
CC(C)c1c(CN(C)C(C)Cc2ccccc2)n(C)n(-c2ccccc2)c1=O (stereo not given) [FAMPROFAZONE]	Bacterial Biotransformation	Compound metabolized
CC(C)(C)NCC(O)COc1cccc2c1CC(O)C(O)C2 (stereo not given) [NADOLOL]	Bacterial Biotransformation	Compound metabolized
